Reference for the values: patent US20240301076A1

// reported IC50, CXCL1, Tango assay per item
Molecular target: T1, human CXCR2 (human, UniProt P25025 1-360)
T1 sequence: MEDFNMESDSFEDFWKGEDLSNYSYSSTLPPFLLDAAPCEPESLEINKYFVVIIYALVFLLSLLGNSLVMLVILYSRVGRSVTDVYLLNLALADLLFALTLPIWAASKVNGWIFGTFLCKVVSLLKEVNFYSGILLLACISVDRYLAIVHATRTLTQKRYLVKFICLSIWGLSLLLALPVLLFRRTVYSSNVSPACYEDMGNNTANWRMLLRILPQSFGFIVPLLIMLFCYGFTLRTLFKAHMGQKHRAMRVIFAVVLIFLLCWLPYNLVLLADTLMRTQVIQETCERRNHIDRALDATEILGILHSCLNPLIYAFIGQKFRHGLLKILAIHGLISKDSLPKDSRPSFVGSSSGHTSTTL
Assay: cell-based or functional assay
The answer is to be given in pM; state only the numeric part.

**Query** Requested field: IC50, CXCL1, Tango assay. Item: BKO-4A8 variant VL N94K (antibody, human IgG4 S228P, lambda, V domains shown, IgG4 S228P, lambda; parental heavy chain; also called 4A8 VL N94K) VH: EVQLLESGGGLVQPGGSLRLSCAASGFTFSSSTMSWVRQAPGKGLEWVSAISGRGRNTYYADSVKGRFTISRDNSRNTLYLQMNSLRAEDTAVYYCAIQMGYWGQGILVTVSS VL: QSALTQPPSASGSPGQSVTISCIGTSSDVGGYNYVSWYQQHPDKAPKLMIYEVNKRPSGVPDRFSGSKSGNTASLTVSGLQAEDEADYYCSSYAGKNNFGVFGGGTKLTVLG
**Result** 123

Others:
**Query** Name the reported IC50, CXCL1, Tango assay value associated with the binder BKO-4A8 variant VH N56S (antibody, human IgG4 S228P, lambda, V domains shown, IgG4 S228P, lambda; parental light chain; also called 4A8 VH N56S) VH: EVQLLESGGGLVQPGGSLRLSCAASGFTFSSSTMSWVRQAPGKGLEWVSAISGRGRSTYYADSVKGRFTISRDNSRNTLYLQMNSLRAEDTAVYYCAIQMGYWGQGILVTVSS VL: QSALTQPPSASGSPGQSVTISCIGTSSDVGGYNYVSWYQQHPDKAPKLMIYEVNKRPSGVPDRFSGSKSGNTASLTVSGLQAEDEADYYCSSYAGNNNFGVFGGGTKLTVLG
**Result** 158
